# system: B1 bradykinin receptor (Homo sapiens, UniProt P46663)
# Sequence (P46663 whole entry): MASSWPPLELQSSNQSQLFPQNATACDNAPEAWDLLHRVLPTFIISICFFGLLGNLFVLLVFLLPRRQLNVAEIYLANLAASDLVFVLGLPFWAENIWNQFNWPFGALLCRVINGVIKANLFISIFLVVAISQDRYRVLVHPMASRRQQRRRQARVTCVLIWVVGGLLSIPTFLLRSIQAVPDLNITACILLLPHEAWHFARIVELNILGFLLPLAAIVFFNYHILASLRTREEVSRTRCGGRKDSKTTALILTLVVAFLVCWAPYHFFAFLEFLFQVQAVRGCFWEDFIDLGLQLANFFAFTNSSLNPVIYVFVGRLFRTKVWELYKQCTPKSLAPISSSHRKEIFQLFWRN
# assay method text: Displacement of [3H]DAK from human bradykinin B1 receptor expressed in CHOD cells
# Assay type: cell-based
reported endpoint: Ki

molecular string: CC(C)NCc1ccc2c(c1)OCC[C@H]2NC(=O)C[C@@H](NS(=O)(=O)c1cccc(C(F)(F)F)c1)c1ccc(F)cc1
system: B1 bradykinin receptor (Homo sapiens, UniProt P46663)
Ki: 4.7 nM (antagonist)
//
molecular string: O=C(C[C@@H](NS(=O)(=O)c1ccc2ccccc2c1)c1ccccc1)N[C@@H]1CCOc2cc(CO)ccc21
system: B1 bradykinin receptor (Homo sapiens, UniProt P46663)
Ki: > 50000 nM
//
molecular string: CC(C)CNCc1ccc2c(c1)OCC[C@H]2NC(=O)C[C@@H](NS(=O)(=O)c1ccc2ccccc2c1)c1ccccc1
system: B1 bradykinin receptor (Homo sapiens, UniProt P46663)
Ki: 5 nM (antagonist)
//
molecular string: CC(C)(C)NCc1ccc2c(c1)OCC[C@H]2NC(=O)C[C@@H](NS(=O)(=O)c1ccc(Cl)cc1Cl)c1ccccc1
system: B1 bradykinin receptor (Homo sapiens, UniProt P46663)
Ki: 127 nM (antagonist)

Report value: Ki, system: B1 bradykinin receptor (Homo sapiens, UniProt P46663), molecule: O=C(C[C@@H](NS(=O)(=O)c1cccc(C(F)(F)F)c1)c1ccc(F)cc1)N[C@@H]1CCOc2cc(CNC3CCC3)ccc21 10 nM (antagonist)

Report value: Ki, system: B1 bradykinin receptor (Homo sapiens, UniProt P46663), molecule: CC(C)(C)NCc1ccc2c(c1)OCC[C@H]2NC(=O)C[C@@H](NS(=O)(=O)c1cccc(C(F)(F)F)c1)c1ccccc1 17.9 nM (antagonist)

Report value: Ki, system: B1 bradykinin receptor (Homo sapiens, UniProt P46663), molecule: CC(C)NCc1ccc2c(c1)OCC[C@H]2NC(=O)C[C@@H](NS(=O)(=O)c1ccc2ccccc2c1)c1ccccc1 8.3 nM (antagonist)

====

# assay method text: Oral bioavailability in Sprague-Dawley rat at 3 mg/kg, po
# Format: ADME, organism-based
# conditions: in vivo
reported endpoint: bioavailability (%)
The response must be a number in % with no trailing unit.

Entry O=C(C[C@@H](NS(=O)(=O)c1ccc2ccccc2c1)c1ccccc1)N[C@@H]1CCOc2cc(CN3CCCCC3)ccc21 needs its bioavailability filled in; supply it. 4

====

# assay method text: Volume of distribution at steady state in Sprague-Dawley rat at 1 mg/kg, iv
# Assay type: ADME, organism-based
# Parameters: dose 1 mg/kg, route intravenous
# conditions: in vivo, read-out: Vss
reported endpoint: Vd (L/kg)

[1] O=C(C[C@@H](NS(=O)(=O)c1cccc(C(F)(F)F)c1)c1ccc(F)cc1)N[C@@H]1CCOc2cc(CN3CCCC3)ccc21
[2] O=C(C[C@@H](NS(=O)(=O)c1cccc(C(F)(F)F)c1)c1ccc(F)cc1)N[C@@H]1CCOc2cc(CN3CCCCC3)ccc21
[3] COCCNCc1ccc2c(c1)OCC[C@H]2NC(=O)C[C@@H](NS(=O)(=O)c1cccc(C(F)(F)F)c1)c1ccc(F)cc1
Could you list the above compounds by Vd, going from the biggest number down? I'd appreciate it if you listed the labels in the requested order. 1, 3, 2
(1: 13.7 L/kg, 3: 8.09 L/kg, 2: 4.64 L/kg)

The measurements presented in this section are drawn from ChEMBL document CHEMBL1147141.
